assay: Metabolic stability in human liver microsomes at 1 uM measured as compound remaining after 45 mins by LC/MS/MS analysis; type: ADME, Microsome; settings: read-out: Stability
List of remaining at 0.75 h, 1 µM values.
Your answer should be a plain number; it is taken to be in %.

Reference set, count: 2
MOLECULE_SMILES | PARAMETER | VALUE_REPORTED
O=[N+]([O-])c1cn2c(n1)OC[C@@H](OCc1ccc(OC(F)(F)F)cc1)C2 | remaining at 0.75 h, 1 µM | 93
C[C@H](O[C@@H]1COc2nc([N+](=O)[O-])cn2C1)c1ccc(OC(F)(F)F)cc1 | remaining at 0.75 h, 1 µM | 73

Now look at this one.
Query :: Give the value of remaining at 0.75 h, 1 µM reported for the following: C[C@@H](O[C@@H]1COc2nc([N+](=O)[O-])cn2C1)c1ccc(OC(F)(F)F)cc1
Result :: 60
